experiment: activity coefficient (dimensionless); of the first substance listed, at infinite dilution; xn = mol fraction of the nth substance listed; conditions: 385.45 K; Liquid; Chromatography; x1 = 0
value.kind: activity coefficient

INSERT INTO assay_data (compound, value_kind, assay_result) VALUES
  ('CCCCCCC=O [heptanal] + CCCC[N+](C)(C)C.O=S(=O)([N-]S(=O)(=O)C(F)(F)F)C(F)(F)F', 'activity coefficient', 1.48),
  ('CCCCCCC(=O)OC [methyl heptanoate] + CCCC[N+](C)(C)C.O=S(=O)([N-]S(=O)(=O)C(F)(F)F)C(F)(F)F', 'activity coefficient', 2.43),
  ('CCCCCCCC=O [octanal] + CCCC[N+](C)(C)C.O=S(=O)([N-]S(=O)(=O)C(F)(F)F)C(F)(F)F', 'activity coefficient', 3.44),
  ('CCCCCc1ccccc1 [pentylbenzene] + CCCC[N+](C)(C)C.O=S(=O)([N-]S(=O)(=O)C(F)(F)F)C(F)(F)F', 'activity coefficient', 7.07);

----------
# activity coefficient annotations
test: activity coefficient (dimensionless); of the first substance listed, at infinite dilution; xn = mol fraction of the nth substance listed; conditions: 354.05 K; Liquid; Chromatography; x1 = 0
value.kind: activity coefficient

INSERT INTO measurements (compound, assay_result) VALUES
  ('CCCCc1ccccc1 [butylbenzene] + CCCC[N+](C)(C)C.O=S(=O)([N-]S(=O)(=O)C(F)(F)F)C(F)(F)F', 5.43),
  ('CCCCCC(=O)OC [methyl hexanoate] + CCCC[N+](C)(C)C.O=S(=O)([N-]S(=O)(=O)C(F)(F)F)C(F)(F)F', 2.33),
  ('CCCCCCCCCCC [undecane] + CCCC[N+](C)(C)C.O=S(=O)([N-]S(=O)(=O)C(F)(F)F)C(F)(F)F', 73.3),
  ('OC1CCCCC1 [cyclohexanol] + CCCC[N+](C)(C)C.O=S(=O)([N-]S(=O)(=O)C(F)(F)F)C(F)(F)F', 2.89);

----------
test: activity coefficient (dimensionless); of the first substance listed, at infinite dilution; xn = mol fraction of the nth substance listed; details: 322.55 K; Liquid; Chromatography; x1 = 0
value.kind: activity coefficient

INSERT INTO measurements (compound, value_kind, assay_result) VALUES
  ('C=CCCCCCC [oct-1-ene] + CCCC[N+](C)(C)C.O=S(=O)([N-]S(=O)(=O)C(F)(F)F)C(F)(F)F', 'activity coefficient', 20.4),
  ('C=CCCCCCCC [1-nonene] + CCCC[N+](C)(C)C.O=S(=O)([N-]S(=O)(=O)C(F)(F)F)C(F)(F)F', 'activity coefficient', 29.9),
  ('C=CCCCCC [1-heptene] + CCCC[N+](C)(C)C.O=S(=O)([N-]S(=O)(=O)C(F)(F)F)C(F)(F)F', 'activity coefficient', 13.9),
  ('C=CCCCCCCCC [1-decene] + CCCC[N+](C)(C)C.O=S(=O)([N-]S(=O)(=O)C(F)(F)F)C(F)(F)F', 'activity coefficient', 43.1),
  ('C1=CCCC=C1 [1,3-cyclohexadiene] + CCCC[N+](C)(C)C.O=S(=O)([N-]S(=O)(=O)C(F)(F)F)C(F)(F)F', 'activity coefficient', 3.37),
  ('C1=CCCCC1 [cyclohexene] + CCCC[N+](C)(C)C.O=S(=O)([N-]S(=O)(=O)C(F)(F)F)C(F)(F)F', 'activity coefficient', 6.45),
  ('C=CCCCCCCCCC [1-undecene] + CCCC[N+](C)(C)C.O=S(=O)([N-]S(=O)(=O)C(F)(F)F)C(F)(F)F', 'activity coefficient', 62.7),
  ('C=CCCCC [hex-1-ene] + CCCC[N+](C)(C)C.O=S(=O)([N-]S(=O)(=O)C(F)(F)F)C(F)(F)F', 'activity coefficient', 9.46);
